- Test system: Mycobacterium tuberculosis
- Assay: Antimycobacterial activity against Mycobacterium tuberculosis H37Rv in 7H12 medium by microplate alamar blue assay
- Type: functional
Measure Name: MIC (µM)
Could you give me the number in µM? Just the number is fine.

Prompt: Form: Entry = C[C@H]1COC2(CCC(C(=O)Nc3cc([N+](=O)[O-])cc(C(F)(F)F)c3)CC2)O1 (some centres undefined) | System = Mycobacterium tuberculosis | MIC = ____
Response: 23

Prompt: Form: Entry = O=C(OCc1ccccc1)c1cc([N+](=O)[O-])cc([N+](=O)[O-])c1 | System = Mycobacterium tuberculosis | MIC = ____
Response: 13

Prompt: Form: Entry = C[C@H]1COC2(CCC(C(=O)Nc3cc([N+](=O)[O-])cc([N+](=O)[O-])c3)CC2)O1 (some centres undefined) | System = Mycobacterium tuberculosis | MIC = ____
Response: 47.9

Prompt: Form: Entry = C[C@H]1COC2(CCN(S(=O)(=O)c3cc([N+](=O)[O-])cc(C(F)(F)F)c3)CC2)O1 | System = Mycobacterium tuberculosis | MIC = ____
Response: 6.99

====

- Test system: Mycobacterium tuberculosis
- Assay: Antimycobacterial activity against Mycobacterium tuberculosis H37Rv in 7H12 medium by microplate alamar blue assay
- Type: functional
Measure Name: MIC

Below are worked cases with known answers.
In [3]: df
Out[3]:
                                smiles_code  measure_name  value_reported
0  C[C@H]1COC2(CCN(c3nc(=O)c4cc(C(F)(F)F)cc([N+](=O)[O-])c4s3)CC2)O1           MIC       < 0.02 µM
1  C[C@H]1COC2(CCN(S(=O)(=O)c3cc(Br)cc(C(F)(F)F)c3)CC2)O1           MIC         > 10 µM
2  O=C(OCc1ccccc1)c1cc([N+](=O)[O-])cc(C(F)(F)F)c1           MIC         > 50 µM
3  C[C@H]1COC2(CCN(S(=O)(=O)c3cc(-c4ccccn4)cc(C(F)(F)F)c3)CC2)O1           MIC         > 50 µM

Note: attention shifts to another entry.
Prompt: For C[C@H]1COC2(CCN(S(=O)(=O)c3cc(-c4ccccc4)cc(C(F)(F)F)c3)CC2)O1 , what is its reported MIC?
Response: > 64 µM
